Provenance of the data: the supplement of paper PMC11451515

System: NOMO1
assay_overview: AUC of viability dose-response curve (% viability x log10 dose units); higher = less sensitive
condition: RPMI 5 mM glucose + 10% FBS; 48 h
// classify: if (AUC of viability dose-response curve < 400) MET else NOT MET

1) O=C(O)CCCc1ccc(N(CCCl)CCCl)cc1 | NOT MET
2) CCNC(=O)c1noc(-c2cc(C(C)C)c(O)cc2O)c1-c1ccc(CN2CCOCC2)cc1 | MET

Alright, here's another compound for you.
# input hey, is AUC of viability dose-response curve for NC(=O)c1ncn([C@@H]2O[C@H](CO)[C@@H](O)[C@H]2O)c1N lower than 400 or not?
# output NOT MET
